// endpoint AC50 / system Sodium-dependent noradrenaline transporter (Homo sapiens, UniProt P23975); note: assay procedure not described here

Below, 2 molecules whose answers are already recorded.
NC(=O)c1cnccn1 [PYRAZINAMIDE] | > 30 µM
Cc1nc(-c2ccc(OCC(C)C)c(C#N)c2)sc1C(=O)O | > 30 µM

API: the following record is the query input.
Problem: What measured AC50 goes with O=[N+]([O-])c1cncn1CCN1CCOCC1 ?
Result: > 30 µM

###

Molecular target: Adenosine receptor A3 (Homo sapiens, UniProt P0DMS8); note: assay procedure not described here
Sequence (P0DMS8 whole entry): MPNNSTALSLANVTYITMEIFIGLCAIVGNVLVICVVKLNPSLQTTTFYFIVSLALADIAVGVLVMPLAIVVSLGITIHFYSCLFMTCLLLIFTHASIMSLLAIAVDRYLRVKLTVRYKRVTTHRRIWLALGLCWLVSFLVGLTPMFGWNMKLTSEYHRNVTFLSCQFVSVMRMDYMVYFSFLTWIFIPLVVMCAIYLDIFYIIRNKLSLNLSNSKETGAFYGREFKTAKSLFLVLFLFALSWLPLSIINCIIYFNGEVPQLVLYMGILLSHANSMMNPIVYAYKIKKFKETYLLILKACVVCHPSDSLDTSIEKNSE
# AC50 annotations

Problem: Report AC50 for OCCN1CCN(CCCN2c3ccccc3C=Cc3ccccc32)CC1 [OPIPRAMOL] tested on Adenosine receptor A3 (Homo sapiens, UniProt P0DMS8). Note: assay procedure not described here.
Result: > 30 µM

Problem: Report AC50 for O=C(NC[C@H]1CN(c2ccc(N3CCOCC3=O)cc2)C(=O)O1)c1ccc(Cl)s1 [RIVAROXABAN] tested on Adenosine receptor A3 (Homo sapiens, UniProt P0DMS8). Note: assay procedure not described here.
Result: > 30 µM

Problem: Report AC50 for CS(=O)(=O)c1ccc([C@@H](O)[C@@H](CO)NC(=O)C(Cl)Cl)cc1 [THIAMPHENICOL] tested on Adenosine receptor A3 (Homo sapiens, UniProt P0DMS8). Note: assay procedure not described here.
Result: > 30 µM

Problem: Report AC50 for CC(=O)O[C@@]12CO[C@@H]1C[C@H](O)[C@@]1(C)C(=O)[C@H](O)C3=C(C)[C@@H](OC(=O)[C@H](O)[C@@H](NC(=O)OC(C)(C)C)c4ccccc4)C[C@@](O)([C@@H](OC(=O)c4ccccc4)[C@H]21)C3(C)C [DOCETAXEL ANHYDROUS] tested on Adenosine receptor A3 (Homo sapiens, UniProt P0DMS8). Note: assay procedure not described here.
Result: > 30 µM

Problem: Report AC50 for NC1=NC(=O)C(c2ccccc2)O1 (stereo not given) [PEMOLINE] tested on Adenosine receptor A3 (Homo sapiens, UniProt P0DMS8). Note: assay procedure not described here.
Result: > 30 µM

Problem: Report AC50 for O=C(CCCCCCC(=O)Nc1ccccc1)NO [VORINOSTAT] tested on Adenosine receptor A3 (Homo sapiens, UniProt P0DMS8). Note: assay procedure not described here.
Result: > 30 µM

Problem: Report AC50 for COC(=O)C1=C(C)NC(C)=C(C(=O)OC(C)C)C1c1cccc2nonc12 (stereo not given) [ISRADIPINE] tested on Adenosine receptor A3 (Homo sapiens, UniProt P0DMS8). Note: assay procedure not described here.
Result: 20.3 µM

Problem: Report AC50 for O=C(CCCCC(=O)Nc1c(I)cc(I)c(C(=O)O)c1I)Nc1c(I)cc(I)c(C(=O)O)c1I [IODIPAMIDE] tested on Adenosine receptor A3 (Homo sapiens, UniProt P0DMS8). Note: assay procedure not described here.
Result: > 10 µM

Problem: Report AC50 for CN1CCCN=C1COC(=O)C(O)(c1ccccc1)C1CCCCC1 (stereo not given) [OXYPHENCYCLIMINE] tested on Adenosine receptor A3 (Homo sapiens, UniProt P0DMS8). Note: assay procedure not described here.
Result: > 10 µM

Problem: Report AC50 for CC(=O)c1ccc2c(c1)N(CCCN1CCN(CCO)CC1)c1ccccc1S2 [ACETOPHENAZINE] tested on Adenosine receptor A3 (Homo sapiens, UniProt P0DMS8). Note: assay procedure not described here.
Result: > 30 µM

###

// endpoint AC50 / system D(4) dopamine receptor (Homo sapiens); note: assay procedure not described here

Below, 2 compounds whose answers are already recorded.
O=C(Nc1ccccc1)OCC(CN1CCCCC1)OC(=O)Nc1ccccc1 (stereo not given) [DIPERODON] | 5.2 µM
CCCCCN(C)CCC(O)(P(=O)(O)O)P(=O)(O)O [IBANDRONIC ACID] | > 10 µM

Problem: Report AC50 for COc1ccc2cccc(CCNC(C)=O)c2c1 [AGOMELATINE] tested on D(4) dopamine receptor (Homo sapiens). Note: assay procedure not described here.
Sequence (P21917 whole entry): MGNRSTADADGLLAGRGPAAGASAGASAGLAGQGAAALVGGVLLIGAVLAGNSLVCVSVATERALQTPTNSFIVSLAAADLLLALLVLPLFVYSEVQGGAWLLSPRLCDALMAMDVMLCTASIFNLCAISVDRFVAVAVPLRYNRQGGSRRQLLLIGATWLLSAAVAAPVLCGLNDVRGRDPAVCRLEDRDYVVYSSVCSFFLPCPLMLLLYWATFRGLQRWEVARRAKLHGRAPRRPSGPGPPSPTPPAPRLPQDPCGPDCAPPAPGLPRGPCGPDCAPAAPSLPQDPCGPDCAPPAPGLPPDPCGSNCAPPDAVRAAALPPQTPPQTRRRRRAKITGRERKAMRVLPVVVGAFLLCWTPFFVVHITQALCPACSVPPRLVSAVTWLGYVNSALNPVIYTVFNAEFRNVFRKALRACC
Result: > 10 µM

Problem: Report AC50 for NC(N)=Nc1nc(CSCCC(N)=NS(N)(=O)=O)cs1 [FAMOTIDINE] tested on D(4) dopamine receptor (Homo sapiens). Note: assay procedure not described here.
Result: > 10 µM

Problem: Report AC50 for CC(C(=O)O)c1ccc(N2CC=CC2)c(Cl)c1 (stereo not given) [PIRPROFEN] tested on D(4) dopamine receptor (Homo sapiens). Note: assay procedure not described here.
Result: > 10 µM

###

# AC50 annotations
target: Progesterone receptor (Homo sapiens); format: functional; note: assay procedure not described here
Sequence (P06401 whole entry): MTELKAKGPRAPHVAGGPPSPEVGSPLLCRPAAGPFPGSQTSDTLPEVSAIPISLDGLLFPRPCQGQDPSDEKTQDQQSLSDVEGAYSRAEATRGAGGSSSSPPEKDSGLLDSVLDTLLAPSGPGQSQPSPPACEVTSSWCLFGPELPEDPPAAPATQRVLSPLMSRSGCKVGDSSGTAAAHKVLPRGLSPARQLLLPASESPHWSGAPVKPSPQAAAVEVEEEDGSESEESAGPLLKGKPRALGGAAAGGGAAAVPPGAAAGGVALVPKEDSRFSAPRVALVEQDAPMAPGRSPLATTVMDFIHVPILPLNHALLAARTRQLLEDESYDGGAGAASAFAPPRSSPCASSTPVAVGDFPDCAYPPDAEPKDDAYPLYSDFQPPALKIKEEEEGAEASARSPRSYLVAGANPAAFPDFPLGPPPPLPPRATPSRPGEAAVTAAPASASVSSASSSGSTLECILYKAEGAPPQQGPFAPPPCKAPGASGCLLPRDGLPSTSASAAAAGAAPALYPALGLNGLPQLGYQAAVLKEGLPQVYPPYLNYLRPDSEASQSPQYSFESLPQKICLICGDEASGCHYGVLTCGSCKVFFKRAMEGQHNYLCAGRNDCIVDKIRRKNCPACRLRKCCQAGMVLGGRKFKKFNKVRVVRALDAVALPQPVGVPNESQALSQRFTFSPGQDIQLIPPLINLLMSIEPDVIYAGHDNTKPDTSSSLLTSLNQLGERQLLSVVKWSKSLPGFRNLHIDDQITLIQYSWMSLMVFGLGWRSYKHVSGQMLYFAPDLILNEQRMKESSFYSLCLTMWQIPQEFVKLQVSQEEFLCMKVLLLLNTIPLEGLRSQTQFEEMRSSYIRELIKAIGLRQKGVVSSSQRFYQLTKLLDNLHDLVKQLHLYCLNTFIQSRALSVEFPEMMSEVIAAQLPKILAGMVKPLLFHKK

Below, 6 molecules whose answers are already recorded.
CCCCOc1cc(C(=O)NCCN(CC)CC)c2ccccc2n1 | > 10 µM
C1=Cc2cccc(OCC3CNCCO3)c2C1 (configuration not stated) | > 30 µM
C[N+](C)(C)CCOC(N)=O | > 10 µM
COc1c(N2CCNC(C)C2)c(F)cc2c(=O)c(C(=O)O)cn(C3CC3)c12 (configuration not stated) | > 10 µM
O=C(O)c1cc(-c2ccc(F)cc2F)ccc1O | > 10 µM
O=C1CN=C(c2ccccc2)c2cc(Cl)ccc2N1CC(F)(F)F | > 30 µM

Problem: What measured AC50 goes with O=C1NCCN1CCN1CCC(c2cn(-c3ccc(F)cc3)c3ccc(Cl)cc23)CC1 ?
Result: > 30 µM

Problem: What measured AC50 goes with C[N+](C)(C)CC(=O)O ?
Result: > 30 µM

Problem: What measured AC50 goes with C[C@]12CCC(=O)C=C1CC[C@@H]1[C@@H]2CC[C@@]2(C)[C@H]1CC[C@]2(C)O ?
Result: 0.2 µM

Problem: What measured AC50 goes with CCCCCOC(=O)Nc1nc(=O)n([C@@H]2O[C@H](C)[C@@H](O)[C@H]2O)cc1F ?
Result: > 30 µM

Problem: What measured AC50 goes with CCCC(CCC)C(=O)O[C@H]1C[C@H]2CC[C@@H](C1)[N+]2(C)C ?
Result: > 30 µM

Problem: What measured AC50 goes with CN1C(=O)CC(C)(c2ccccc2)C1=O (configuration not stated) [METHSUXIMIDE] ?
Result: > 10 µM

###

# AC50 annotations
molecular target: Muscarinic acetylcholine receptor M1 (Homo sapiens); assay type: functional, cell-based; note: assay procedure not described here
Sequence (P11229 whole entry): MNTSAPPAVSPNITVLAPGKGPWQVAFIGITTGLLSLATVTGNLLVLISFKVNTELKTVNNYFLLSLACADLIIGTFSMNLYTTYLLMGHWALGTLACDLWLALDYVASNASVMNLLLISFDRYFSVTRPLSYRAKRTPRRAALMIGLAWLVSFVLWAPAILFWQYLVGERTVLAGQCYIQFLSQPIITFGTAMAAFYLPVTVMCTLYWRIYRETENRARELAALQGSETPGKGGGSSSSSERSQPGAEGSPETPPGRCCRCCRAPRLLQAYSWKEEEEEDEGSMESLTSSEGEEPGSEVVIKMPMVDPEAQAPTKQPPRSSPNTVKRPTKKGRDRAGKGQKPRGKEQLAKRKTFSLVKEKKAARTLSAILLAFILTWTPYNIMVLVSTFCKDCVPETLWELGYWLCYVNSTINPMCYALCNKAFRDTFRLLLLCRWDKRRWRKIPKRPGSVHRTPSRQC

COc1cc(Nc2c(C#N)cnc3cc(OCCCN4CCN(C)CC4)c(OC)cc23)c(Cl)cc1Cl | > 10 µM

Problem: What measured AC50 goes with O=C1CN=C(c2ccccc2)c2c(sc3c2CCCC3)N1 ?
Result: > 30 µM

Problem: What measured AC50 goes with O=C1NCC2(CCN(CCc3ccccc3)CC2)O1 [FENSPIRIDE] ?
Result: > 30 µM

Problem: What measured AC50 goes with CCS(=O)(=O)N1CC(CC#N)(n2cc(-c3ncnc4[nH]ccc34)cn2)C1 ?
Result: > 30 µM

###

target: Beta-1 adrenergic receptor (Homo sapiens); assay type: functional; note: assay procedure not described here
Sequence (P08588 whole entry): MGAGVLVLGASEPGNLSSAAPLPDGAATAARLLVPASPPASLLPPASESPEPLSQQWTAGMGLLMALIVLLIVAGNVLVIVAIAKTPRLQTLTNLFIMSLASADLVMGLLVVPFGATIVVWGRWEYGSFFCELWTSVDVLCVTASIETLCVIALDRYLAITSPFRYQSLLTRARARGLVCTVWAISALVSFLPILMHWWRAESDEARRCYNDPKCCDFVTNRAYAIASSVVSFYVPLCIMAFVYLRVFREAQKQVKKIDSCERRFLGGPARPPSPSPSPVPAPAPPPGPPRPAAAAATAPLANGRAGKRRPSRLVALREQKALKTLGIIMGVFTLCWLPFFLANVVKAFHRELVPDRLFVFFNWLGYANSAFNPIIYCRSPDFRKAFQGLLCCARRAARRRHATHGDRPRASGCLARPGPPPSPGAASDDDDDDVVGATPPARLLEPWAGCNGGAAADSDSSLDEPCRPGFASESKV
# AC50 annotations

Below, 5 compounds whose answers are already recorded.
COC(=O)[C@@H]1CC2=CC(=O)CC[C@]2(C)[C@@]23O[C@@H]2C[C@@]2(C)[C@@H](CC[C@@]24CCC(=O)O4)[C@H]13 | > 30 µM
CCCCOc1cc(C(=O)NCCN(CC)CC)c2ccccc2n1 | > 10 µM
NC(=O)c1ncn([C@@H]2O[C@H](CO)[C@@H](O)[C@H]2O)c1O | > 30 µM
Nc1nc(N)c2nc(-c3ccccc3)c(N)nc2n1 | > 30 µM
CC(C)(Oc1ccc(C2CC2(Cl)Cl)cc1)C(=O)O (stereo not given) [CIPROFIBRATE] | > 30 µM

Problem: What measured AC50 goes with CNC(=O)c1cc(Oc2ccc(NC(=O)Nc3ccc(Cl)c(C(F)(F)F)c3)cc2)ccn1 ?
Result: 28 µM

Problem: What measured AC50 goes with CC(=O)NS(=O)(=O)c1ccc(N)cc1 [SULFACETAMIDE] ?
Result: > 10 µM

Problem: What measured AC50 goes with Cc1cc(-c2ccccc2)nnc1NCCN1CCOCC1 ?
Result: > 10 µM

Problem: What measured AC50 goes with CC[C@]1(O)C[C@@H]2CN(CCc3c([nH]c4ccccc34)[C@@](C(=O)OC)(c3cc4c(cc3OC)N(C)[C@H]3[C@@](O)(C(N)=O)[C@H](O)[C@]5(CC)C=CCN6CC[C@]43[C@@H]65)C2)C1 ?
Result: > 30 µM

Problem: What measured AC50 goes with C1COC(NC(C2CC2)C2CC2)=N1 ?
Result: > 10 µM

###

# AC50 annotations
target: Voltage-dependent L-type calcium channel subunit alpha-1C (Rattus norvegicus, UniProt P22002); type: functional; note: assay procedure not described here
Sequence (P22002 whole entry): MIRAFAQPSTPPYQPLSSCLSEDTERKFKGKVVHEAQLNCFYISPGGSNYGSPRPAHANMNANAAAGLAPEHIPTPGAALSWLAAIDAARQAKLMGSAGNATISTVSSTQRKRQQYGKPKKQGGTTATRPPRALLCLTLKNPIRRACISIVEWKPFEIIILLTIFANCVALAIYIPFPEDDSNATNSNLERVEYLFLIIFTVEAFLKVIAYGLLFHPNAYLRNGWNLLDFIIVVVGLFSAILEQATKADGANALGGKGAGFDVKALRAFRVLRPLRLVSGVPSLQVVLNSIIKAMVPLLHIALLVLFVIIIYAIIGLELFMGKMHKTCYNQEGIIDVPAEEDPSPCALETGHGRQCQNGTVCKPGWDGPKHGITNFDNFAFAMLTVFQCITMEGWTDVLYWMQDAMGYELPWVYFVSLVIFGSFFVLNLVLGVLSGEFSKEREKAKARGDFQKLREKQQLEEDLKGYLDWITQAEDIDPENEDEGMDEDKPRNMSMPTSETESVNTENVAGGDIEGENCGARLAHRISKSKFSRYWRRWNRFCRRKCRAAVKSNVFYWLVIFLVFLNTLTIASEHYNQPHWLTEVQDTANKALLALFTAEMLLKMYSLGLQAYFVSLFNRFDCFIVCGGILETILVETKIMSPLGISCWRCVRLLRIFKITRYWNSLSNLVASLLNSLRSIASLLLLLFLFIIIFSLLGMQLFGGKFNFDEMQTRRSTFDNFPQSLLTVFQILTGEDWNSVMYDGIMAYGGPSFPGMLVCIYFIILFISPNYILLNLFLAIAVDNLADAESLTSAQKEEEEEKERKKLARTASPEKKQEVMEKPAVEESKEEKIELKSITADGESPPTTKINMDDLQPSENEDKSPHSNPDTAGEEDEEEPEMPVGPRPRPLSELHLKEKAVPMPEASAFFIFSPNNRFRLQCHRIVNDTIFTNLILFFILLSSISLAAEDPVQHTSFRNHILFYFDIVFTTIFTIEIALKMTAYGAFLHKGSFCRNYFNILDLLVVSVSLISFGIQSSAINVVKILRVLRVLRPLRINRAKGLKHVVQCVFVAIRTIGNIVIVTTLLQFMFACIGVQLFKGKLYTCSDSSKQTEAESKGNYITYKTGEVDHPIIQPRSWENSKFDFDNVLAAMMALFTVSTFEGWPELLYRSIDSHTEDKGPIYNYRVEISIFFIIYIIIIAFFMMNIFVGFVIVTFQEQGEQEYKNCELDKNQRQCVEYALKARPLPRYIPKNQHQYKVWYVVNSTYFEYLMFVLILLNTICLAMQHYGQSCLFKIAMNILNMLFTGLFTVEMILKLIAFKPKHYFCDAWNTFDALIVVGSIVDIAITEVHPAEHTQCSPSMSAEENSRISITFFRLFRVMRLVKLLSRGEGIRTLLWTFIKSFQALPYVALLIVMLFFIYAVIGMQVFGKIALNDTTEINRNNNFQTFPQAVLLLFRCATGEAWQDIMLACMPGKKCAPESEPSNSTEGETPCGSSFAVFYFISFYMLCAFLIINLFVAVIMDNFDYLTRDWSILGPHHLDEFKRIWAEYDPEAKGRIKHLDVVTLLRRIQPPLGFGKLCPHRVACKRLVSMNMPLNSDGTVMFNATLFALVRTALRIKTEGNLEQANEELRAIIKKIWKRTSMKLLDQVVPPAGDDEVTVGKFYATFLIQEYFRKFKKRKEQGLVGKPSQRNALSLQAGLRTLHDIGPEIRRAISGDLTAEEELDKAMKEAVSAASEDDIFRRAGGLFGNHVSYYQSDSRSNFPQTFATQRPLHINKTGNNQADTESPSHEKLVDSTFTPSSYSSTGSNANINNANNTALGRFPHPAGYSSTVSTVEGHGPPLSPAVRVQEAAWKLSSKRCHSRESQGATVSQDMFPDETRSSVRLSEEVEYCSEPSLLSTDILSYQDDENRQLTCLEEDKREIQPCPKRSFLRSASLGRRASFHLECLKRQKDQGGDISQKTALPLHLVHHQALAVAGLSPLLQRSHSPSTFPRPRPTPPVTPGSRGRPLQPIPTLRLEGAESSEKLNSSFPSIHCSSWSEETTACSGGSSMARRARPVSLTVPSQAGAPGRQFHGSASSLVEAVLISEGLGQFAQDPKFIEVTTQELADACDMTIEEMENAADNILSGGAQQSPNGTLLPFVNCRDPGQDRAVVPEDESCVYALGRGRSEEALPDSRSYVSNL

Below, 2 compounds whose answers are already recorded.
NC(N)=Nc1nc(CSCCC(N)=NS(N)(=O)=O)cs1 | > 10 µM
CC(C)(C(=O)c1cccnc1)c1cccnc1 | > 10 µM

Problem: What measured AC50 goes with CC[C@]1(O)C[C@@H]2CN(CCc3c([nH]c4ccccc34)[C@@](C(=O)OC)(c3cc4c(cc3OC)N(C)[C@H]3[C@@](O)(C(N)=O)[C@H](O)[C@]5(CC)C=CCN6CC[C@]43[C@@H]65)C2)C1 ?
Result: > 30 µM

Problem: What measured AC50 goes with NC1=NC(=O)C(c2ccccc2)O1 (stereo unspecified) ?
Result: > 10 µM

Problem: What measured AC50 goes with CN1CCC2=C(C1)C(c1ccccc1)c1ccccc12 (stereo unspecified) ?
Result: > 10 µM

Problem: What measured AC50 goes with CN(C/C=C/c1ccccc1)Cc1cccc2ccccc12 ?
Result: > 10 µM

Problem: What measured AC50 goes with CC(C)C(=O)Nc1ccc([N+](=O)[O-])c(C(F)(F)F)c1 [FLUTAMIDE] ?
Result: > 10 µM

Problem: What measured AC50 goes with C#CCN[C@@H]1CCc2ccccc21 ?
Result: > 30 µM

Problem: What measured AC50 goes with CN(CCCN1c2ccccc2CCc2ccccc21)CC(=O)c1ccc(Cl)cc1 ?
Result: 2.4 µM

Problem: What measured AC50 goes with CC(Cc1ccccc1)NCCC(c1ccccc1)c1ccccc1 (stereo unspecified) ?
Result: 4.28 µM
